Measurement protocol: Cytotoxicity
Assay type: cell-based
Consider the following compounds and their measured IC50 readings.
Measurement kind: IC50 (µM)

INSERT INTO assay_data (compound, measured) VALUES
  ('NCCCCNCCCCNCCCCNC(=O)N1c2ccccc2C=Cc2ccccc21 [DBA444, Dibenzoazepine Homospermine]', 132),
  ('NCCCCNCCCCNCCCCNC(=O)N1c2ccccc2CCc2ccccc21 [DDBA444, Dihydrodibenzoazepine Homospermine]', 133),
  ('CC12CC3CC(C)(C1)CC(N)(C3)C2 [memantine, reference compound]', 147);
